Tested on: right atrium of a guinea pig heart
experimentDescription: Effect on heart beat: spontaneous contraction of excised right atrium
setupConditions: Cavia porcellus; Concentration 1x10^-4 g/ml; Krebs - Henseleit solution, 37°C; read-out: percentage decrease (-) or increase (+) in the rate of heart beat
quantityKind: inhibition at 100 µg/mL (%)

{"columns": ["compound", "reported"],
 "data": [
  ["CC(C)N(CCOc1ccc2c(c1)C(=O)N(CCO[N+](=O)[O-])C2=O)C(C)C", 71],
  ["CC(COc1ccc2c(c1)C(=O)N(CCO[N+](=O)[O-])C2=O)CN(C)C (centres unmarked)", 62],
  ["CCN(CC)CCOc1ccc2c(c1)C(=O)N(CCO[N+](=O)[O-])C2=O", 73],
  ["O=C1c2ccc(OCCN3CCCCC3)cc2C(=O)N1CCO[N+](=O)[O-]", 74],
  ["CN(C)CCCOc1ccc2c(c1)C(=O)N(CCO[N+](=O)[O-])C2=O", 64]
]}

###

Tested on: collateral blood vessels
experimentDescription: Selective vasodilative effect on collateral blood vessels (coronary vascular resistance, method of Winburg et al.)
Format: in vivo
setupConditions: anaesthetized dogs; test compound 30 ug/kg intravenously vs glyceryl trinitrate 3 µg/kg; ratio of vascular resistance (RL) of test compound to that of glyceryl trinitrate
Listed next: entries and their corresponding Glyceryl trinitrate ratio RL.

{"columns": ["molecule", "Glyceryl trinitrate ratio RL"],
 "data": [
  ["CC(COc1ccc2c(c1)C(=O)N(CCO[N+](=O)[O-])C2=O)CN(C)C (centres unmarked)", 1.7],
  ["O=C1c2ccc(OCCN3CCCCC3)cc2C(=O)N1CCO[N+](=O)[O-]", 1.2],
  ["CC(C)N(CCOc1ccc2c(c1)C(=O)N(CCO[N+](=O)[O-])C2=O)C(C)C", 1.8],
  ["CCN(CC)CCOc1ccc2c(c1)C(=O)N(CCO[N+](=O)[O-])C2=O", 1.6],
  ["CN(C)CCCOc1ccc2c(c1)C(=O)N(CCO[N+](=O)[O-])C2=O", 1.6]
]}
